# Organism: Rattus norvegicus
# ASSAY_PROCEDURE: DrugMatrix - Regimen: Daily Repeat
# Type: toxicity, organism-based, Sprague-Dawley
# Design: regimen Daily Repeat, gender Male, age 6-8 weeks
# CONDITION_LABEL: in vivo, po, 0 mg/kg, 72 h, tissue Blood, route oral GAVAGE, dose level Control, time 3 day, vehicle 100 % WATER
Overview of reported HEMATOCRIT across a group of compounds:
READOUT: HEMATOCRIT (%)

> print(dat)
                                    compound     readout  quantitative.readout
 1   C[N+](C)(C)CCO.[Cl-] [CHOLINE CHLORIDE]  HEMATOCRIT                 32.43
 2  COc1cc2ncnc(Nc3ccc(F)c(Cl)c3)c2cc1OCCCN1CCOCC1 [GEFITINIB]  HEMATOCRIT                 42.62
 3  CC(C)(C)c1ccc(C(=O)CCCN2CCC(OC(c3ccccc3)c3ccccc3)CC2)cc1 [EBASTINE]  HEMATOCRIT                 33.07
 4  COC(=O)C1=C(C)NC(C)=C(C(=O)OCC(C)C)C1c1ccccc1[N+](=O)[O-] (stereo not given) [NISOLDIPINE]  HEMATOCRIT                 33.02
 5                    ClC(Cl)Cl [CHLOROFORM]  HEMATOCRIT                 35.33
 6  C[C@@H]1C[C@@H]([C@H](O)CC2CC(=O)NC(=O)C2)C(=O)[C@@H](C)C1 [CYCLOHEXIMIDE]  HEMATOCRIT                 37.62
 7  CC(C)C[C@H](NC(=O)[C@@H](O)[C@H](N)Cc1ccccc1)C(=O)O [UBENIMEX]  HEMATOCRIT                 35.33
 8  Nc1ccn([C@@H]2CS[C@H](CO)O2)c(=O)n1 [LAMIVUDINE]  HEMATOCRIT                  34.5
 9  Cc1ncc([N+](=O)[O-])n1CCO [METRONIDAZOLE]  HEMATOCRIT                 35.33
10  CC(C)NCC(O)COc1cccc2ccccc12 (stereo not given) [PROPRANOLOL]  HEMATOCRIT                 33.43

###

# Species: Rattus norvegicus
# ASSAY_PROCEDURE: DrugMatrix - Regimen: Daily Repeat
# Format: toxicity, organism-based, Sprague-Dawley
# Set-up: regimen Daily Repeat, gender Male, age 6-8 weeks
# CONDITION_LABEL: in vivo, iv, 0 mg/kg, 72 h, tissue Blood, dose level Control, time 3 day, vehicle 100 % SALINE
READOUT: BASOPHIL (%)

COMPOUND	READOUT	UNITS_TEXT	QUANTITATIVE_READOUT
CCC1=C[C@@H]2CN(C1)Cc1c([nH]c3ccccc13)[C@@](C(=O)OC)(c1cc3c(cc1OC)N(C)[C@H]1[C@@](O)(C(=O)OC)[C@H](OC(C)=O)[C@]4(CC)C=CCN5CC[C@]31[C@@H]54)C2	BASOPHIL	%	0
CC[C@]1(O)C[C@@H]2CN(CCc3c([nH]c4ccccc34)[C@@](C(=O)OC)(c3cc4c(cc3OC)N(C)[C@H]3[C@@](O)(C(=O)OC)[C@H](OC(C)=O)[C@]5(CC)C=CCN6CC[C@]43[C@@H]65)C2)C1	BASOPHIL	%	0
CCc1c2c(nc3ccc(OC(=O)N4CCC(N5CCCCC5)CC4)cc13)-c1cc3c(c(=O)n1C2)COC(=O)[C@]3(O)CC	BASOPHIL	%	0
COc1cccc2c1C(=O)c1c(O)c3c(c(O)c1C2=O)C[C@@](O)(C(=O)CO)C[C@@H]3O[C@H]1C[C@H](N)[C@@H](O)[C@H](C)O1 [EPIRUBICIN]	BASOPHIL	%	0
COc1cccc2c1C(=O)c1c(O)c3c(c(O)c1C2=O)C[C@@](O)(C(=O)CO)C[C@@H]3O[C@H]1C[C@H](N)[C@H](O)[C@H](C)O1	BASOPHIL	%	0

###

Overview of reported NEUTROPHIL across a group of compounds:
# Organism: Rattus norvegicus
# ASSAY_PROCEDURE: DrugMatrix - Regimen: Daily Repeat
# Format: toxicity, organism-based, Sprague-Dawley
# Parameters: regimen Daily Repeat, gender Male, age 6-8 weeks
# CONDITION_LABEL: in vivo, iv, 0 mg/kg, 120 h, tissue Blood, dose level Control, time 5 day, vehicle 100 % SALINE
READOUT: NEUTROPHIL (%)

COMPOUND	UNITS_TEXT	QUANTITATIVE_READOUT
CC[C@]1(O)C[C@@H]2CN(CCc3c([nH]c4ccccc34)[C@@](C(=O)OC)(c3cc4c(cc3OC)N(C)[C@H]3[C@@](O)(C(=O)OC)[C@H](OC(C)=O)[C@]5(CC)C=CCN6CC[C@]43[C@@H]65)C2)C1 [VINBLASTINE]	%	6.17
COc1cccc2c1C(=O)c1c(O)c3c(c(O)c1C2=O)C[C@@](O)(C(=O)CO)C[C@@H]3O[C@H]1C[C@H](N)[C@H](O)[C@H](C)O1 [DOXORUBICIN]	%	9.5
CC(=O)N[C@@H]1[C@H](Oc2c3cc4cc2Oc2ccc(cc2Cl)[C@@H](O[C@@H]2O[C@@H](CO)[C@@H](O)[C@H](O)[C@@H]2NC(C)=O)[C@@H]2NC(=O)[C@H](NC(=O)[C@@H]4NC(=O)[C@H]4NC(=O)[C@@H](Cc5ccc(c(Cl)c5)O3)NC(=O)[C@H](N)c3ccc(O)c(c3)Oc3cc(O)cc4c3)c3ccc(O)c(c3)-c3c(O[C@H]4O[C@H](CO)[C@@H](O)[C@@H](O)[C@@H]4O)cc(O)cc3[C@@H](C(=O)O)NC2=O)O[C@@H](CO)[C@@H](O)[C@@H]1O	%	11.17

###

# Species: Rattus norvegicus
# ASSAY_PROCEDURE: DrugMatrix - Regimen: Daily Repeat
# Format: toxicity, organism-based, Sprague-Dawley
# Design: regimen Daily Repeat, gender Male, age 6-8 weeks
# CONDITION_LABEL: in vivo, po, 10 mg/kg, 72 h, tissue Plasma, route oral GAVAGE, dose level Low, time 3 day, […]
READOUT: CHOLESTEROL (mg/dL)

> print(dat)
                                   compound      readout  units.text  quantitative.readout
1  CC(C)CC(N(C)C)C1(c2ccc(Cl)cc2)CCC1 (centres undefined) [SIBUTRAMINE]  CHOLESTEROL       mg/dL                    70
2  COCCOC(=O)C1=C(C)NC(C)=C(C(=O)OC(C)C)C1c1cccc([N+](=O)[O-])c1 (centres undefined) [NIMODIPINE]  CHOLESTEROL       mg/dL                 69.67
3  COc1ccc2cc([C@H](C)C(=O)O)ccc2c1 [NAPROXEN]  CHOLESTEROL       mg/dL                 54.33
4  CCOC(=O)C1=C(C)NC(C)=C(C(=O)OC)C1c1cccc([N+](=O)[O-])c1 (centres undefined) [NITRENDIPINE]  CHOLESTEROL       mg/dL                 71.67

###

# Organism: Rattus norvegicus
# ASSAY_PROCEDURE: DrugMatrix - Regimen: Daily Repeat
# Format: toxicity, organism-based, Sprague-Dawley
# Parameters: regimen Daily Repeat, gender Male, age 6-8 weeks
# CONDITION_LABEL: in vivo, po, 10 mg/kg, 120 h, tissue Blood, route oral GAVAGE, dose level Low, time 5 day, […]
READOUT: HEMOGLOBIN (G/DL)

> print(dat)
                                   compound  units.text  quantitative.readout
1  CC(C)CC(N(C)C)C1(c2ccc(Cl)cc2)CCC1 (centres undefined) [SIBUTRAMINE]        G/DL                 13.47
2  COc1ccc2cc([C@H](C)C(=O)O)ccc2c1 [NAPROXEN]        G/DL                 13.33
3  COCCOC(=O)C1=C(C)NC(C)=C(C(=O)OC(C)C)C1c1cccc([N+](=O)[O-])c1 (centres undefined) [NIMODIPINE]        G/DL                  13.9
4  CCOC(=O)C1=C(C)NC(C)=C(C(=O)OC)C1c1cccc([N+](=O)[O-])c1 (centres undefined) [NITRENDIPINE]        G/DL                 12.73
